# Tgt: alpha-2-receptor
# Assay remarks: Radioligand binding, alpha-2 adrenoceptor, rat cerebral cortices, [^3 H]-rauwolscine
# Experimental context: rat cerebral cortices, [^3 H]-rauwolscine
Where a name gives a salt, the structure may show the parent alone.
Param label: returns MET when Ki < 6 nM, returns NOT MET otherwise, including exact equality.

// known answers, use as guide
| Molecule | Class assignment |
| --- | --- |
| c1ccc(C2CCN(CC3CCCc4c3ccc3c4OCO3)C2)cc1 (centres unmarked) [Example 143a] | MET |
| CN(CCc1cccs1)CC1CCCc2cc(Cl)ccc21 (centres unmarked) [Example 49, hydrochloride] | NOT MET |
| CN(CCc1ccccc1)CC1CCCc2cc(N)ccc21 (centres unmarked) [Example 114, dihydrochloride] | MET |
| COc1ccc2c(c1)CCCC2CN(C)CCc1ccsc1 (centres unmarked) [Example 6d, hydrochloride] | MET |

Please find the next molecule below.
Record Fc1ccc2c(c1)CCCC2CN1CCC(c2ccccc2)C1 (centres unmarked) : is its Ki strictly below 6 nM?
NOT MET
